Hello, the source for this data is paper PMC9618103, in case you need it.

For each of the compounds below, state its Serum Potassium.
Tested on: Wistar rats
Method summary: Subacute toxicity: water and electrolyte balance (osmolality, sodium, potassium, urinary flow)
Assay type: in vivo
Condition parameters: rats, p.o., 14 days at 10% of LD50 (CCl4, APAP: once daily, 3 days); mean ± SEM, n = 6
Numbers only, in mEq/L.

These recorded examples may help you get a feel for the data.
Compound: O=C(O)c1cn2ccccc2n1 [Compound 3a, imidazo[1,2-a]pyridine-2-carboxylic acid]
Reported property: Serum Potassium
Unit: mEq/L
Test value: 6.83
//
Compound: N#Cc1cn2ccccc2n1 [Compound 2a, imidazo[1,2-a]pyridine-2-carbonitrile]
Reported property: Serum Potassium
Unit: mEq/L
Test value: 6.03
//
Compound: CC(=O)Nc1ccc(O)cc1 [APAP, acetaminophen, reference compound]
Reported property: Serum Potassium
Unit: mEq/L
Test value: 3.78
//
Compound: O=C(O)c1nc2ccccn2c1[N+](=O)[O-] [Compound 3b]
Reported property: Serum Potassium
Unit: mEq/L
Test value: 6.69
//
Compound: CCOC(=O)c1cn2ccccc2n1 [Compound 1a]
Reported property: Serum Potassium
Unit: mEq/L
Test value: 6.57
//
Compound: CCOC(=O)c1nc2ccccn2c1[N+](=O)[O-] [Compound 1b]
Reported property: Serum Potassium
Unit: mEq/L
Test value: 6.74

Dear reader, for each entry below, please note its Serum Potassium.
1. N#Cc1nc2ccccn2c1[N+](=O)[O-] [Compound 2b]
2. ClC(Cl)(Cl)Cl [CCl4, carbon tetrachloride, reference compound]

1. 5.79
2. 4.27
